tested on: CAKI-1 renal; experiment: NCI tumour cell line growth inhibition, 48 h; in the data active = GI50 below about 0.43 µM; inactive = the rest
Outcomes: active, inactive

>  <Molecule>
C[C@]12CC[C@H]3[C@@H](CCC4=CC(=O)CC[C@@H]43)[C@@H]1CC[C@@H]2OC(=O)CCc1ccccc1

>  <Assayed System>
CAKI-1 renal

>  <Class>
inactive

$$$$
>  <Molecule>
Cc1c2cc[n+](CCN3CCCCC3)cc2c(C)c2c1[nH]c1ccc(O)cc12

>  <Assayed System>
CAKI-1 renal

>  <Class>
inactive

$$$$
>  <Molecule>
O=C(c1ccccc1)C(CN1CCOCC1)c1ccccc1 (stereo not drawn)

>  <Assayed System>
CAKI-1 renal

>  <Class>
inactive

$$$$
>  <Molecule>
Cn1c2c(cc(S(=O)(=O)c3ccccc3)c1=O)CCc1c-2cnn1-c1ccc(Cl)cc1

>  <Assayed System>
CAKI-1 renal

>  <Class>
inactive

$$$$
>  <Molecule>
CN(C)CCCN1c2ccccc2CCc2ccc(Cl)cc21

>  <Assayed System>
CAKI-1 renal

>  <Class>
inactive

$$$$
>  <Molecule>
O=C(NN1C(=O)CSC12CCCCC2)c1[nH]c2ccc(F)cc2c1-c1ccccc1

>  <Assayed System>
CAKI-1 renal

>  <Class>
inactive

$$$$
>  <Molecule>
O=[N+]([O-])c1cccc(-c2nc3sccn3c2-c2ccnc(NCCCNS(=O)(=O)c3cccc(F)c3)n2)c1

>  <Assayed System>
CAKI-1 renal

>  <Class>
inactive

$$$$
>  <Molecule>
N#C/C(=C\c1c(-c2ccccc2)[nH]c2ccccc12)S(=O)(=O)c1ccccc1

>  <Assayed System>
CAKI-1 renal

>  <Class>
inactive

$$$$
>  <Molecule>
CCN=C1C=CC(=C(c2ccc(N)cc2)c2ccc(N(CC)CC)c(C)c2)C=C1

>  <Assayed System>
CAKI-1 renal

>  <Class>
inactive

$$$$
>  <Molecule>
O=C(/C(=C/c1ccccc1)CN1CCCCC1)c1ccccc1

>  <Assayed System>
CAKI-1 renal

>  <Class>
active

$$$$
>  <Molecule>
COC1CC(OS(=O)(=O)c2ccc(C)cc2)C(OC(=O)c2ccccc2)C(C)O1 (stereo not drawn)

>  <Assayed System>
CAKI-1 renal

>  <Class>
inactive

$$$$
>  <Molecule>
CCN1CCC(CCOC)(CN2c3ccccc3Sc3ccc(Cl)cc32)C1 (stereo not drawn)

>  <Assayed System>
CAKI-1 renal

>  <Class>
inactive

$$$$
>  <Molecule>
C=CC(=O)N1CCN(c2ccc3cccc(NC(=O)c4cnc(C)cn4)c3n2)CC1

>  <Assayed System>
CAKI-1 renal

>  <Class>
inactive

$$$$
>  <Molecule>
COc1cccc(C=Nc2cc(C)ccn2)c1O.COc1cccc(C=Nc2cc(C)ccn2)c1O.[Cu]

>  <Assayed System>
CAKI-1 renal

>  <Class>
inactive

$$$$
>  <Molecule>
N/C(=N\N=C\c1ccc(-c2ccccc2)cc1)N[N+](=O)[O-]

>  <Assayed System>
CAKI-1 renal

>  <Class>
inactive

$$$$
>  <Molecule>
CN(C)c1ccc(/C=C\c2cccc[n+]2C)cc1

>  <Assayed System>
CAKI-1 renal

>  <Class>
inactive

$$$$
>  <Molecule>
C=C1CC[C@@H]2[C@](C)(COC(C)=O)[C@@H](O)CC[C@@]2(C)[C@@H]1COc1ccc2ccc(=O)oc2c1

>  <Assayed System>
CAKI-1 renal

>  <Class>
inactive

$$$$
>  <Molecule>
CC(CN1CCN(CCOCCO)CC1)CN1c2ccccc2Sc2ccc(Cl)cc21 (stereo not drawn)

>  <Assayed System>
CAKI-1 renal

>  <Class>
inactive

$$$$

Value source: PubChem BioAssay (NCI)
